Target: T1, human EpCAM protein (human, UniProt P16422 24-265)
T1 construct: biotinylated in the Octet assays; also called hu EpCAM; biotinylated human EpCAM protein
T1 sequence (looked up): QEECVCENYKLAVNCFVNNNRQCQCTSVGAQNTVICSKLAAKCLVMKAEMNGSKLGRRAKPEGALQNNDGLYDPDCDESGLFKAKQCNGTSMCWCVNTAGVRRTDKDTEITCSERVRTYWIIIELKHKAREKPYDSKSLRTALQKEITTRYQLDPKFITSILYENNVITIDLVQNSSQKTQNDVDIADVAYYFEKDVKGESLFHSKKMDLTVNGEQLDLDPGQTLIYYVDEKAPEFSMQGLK
Test: colorimetric ELISA
measured-metric: ELISA absorbance (absorbance)
Use absorbance as the unit, but write only the number.

binder: Llama anti-EpCAM single domain antibody EPL138 (VHH, E. coli periplasmic extract) VHH: QVQLQESGGGLVQAGGSLRLSCAASGFIFRAASMDWYRQFPGNERESIATISSGGFTNYADSVKGRFTISRDNAKNTVYLQMNSLKPEDTAVYFCGATFLRSDGHHTINGQGTQVTVSS
numeric-result: 3.1

Record summary for Llama anti-EpCAM single domain antibody EPL152 (VHH, E. coli periplasmic extract) VHH: QVQLQESGGGLVQAGGSLRLSCVHSGSIFRASTMAWYRQAPGKQRELVAQIMSGGGTNYAGSVKGRFTISRDNANNTVYLQMNSLKPEDTAVYYCNAAQITSWGPKVYWGQGTQVTVSS : reported ELISA absorbance = 3.4

Entry Llama anti-EpCAM single domain antibody EPL49 (VHH, E. coli periplasmic extract) VHH: QVQLQESGGGLVQAGGSLRLSCAPSGRTSSIFGMGWFRQAPGKEREFVASINWSGGSTSYADSVKGRFTISRDNAKNEMYLQMNSLKFEDTAVYVCAAAVLTNKPSWNFWGQGTQVTVSS , ELISA absorbance reported as 1.1

So for Llama anti-EpCAM single domain antibody EPL125 (VHH, E. coli periplasmic extract) VHH: QVQLQESGGGLVQAGGSLRLSCAASGNVFRAATMAWYRQVPEKQREMVATIASGGTTNYADFVKGRFTISRDNAKNTVYLQMNTLKPEDTAVYYCNALYLTSLGPKSYWGQGTQVTVSS , the logged ELISA absorbance turned out to be 3.5
